Reference source for all entries: patent US20100184663A1

target: HIV-1 gp41 (JRFL strain) (HIV-1 JRFL); assay: cell-based or functional assay
Bridge positions count the residues as written; N and C are the ends. Square brackets hold non-standard residues; d marks the D form. Ends that are not written are not given here.
Recorded measurements of IC50 (JRFL), pseudovirion entry, one per entry
Field: numeric (nM). Do not append units.

• G[dA][dC][dD][dY][dP][dE][dW][dQ][dW][dL][dC][dA][dA]G[dK] (disulfide 3-12 (inferred); also: dimer joined C- to C-terminus by PEG9 spacer on C-terminal Lys) [C9C(PIE7-GK)2] = 215

Now consider a different binder.
Recorded IC50 (JRFL), pseudovirion entry of [dK]G[dA][dC][dD][dY][dP][dE][dW][dQ][dW][dL][dC][dA][dA] (disulfide 4-13 (inferred); also: dimer joined N- to C-terminus by PEG9 spacer) [N9C(PIE7)2] , please.
313
